- Tested target: T1, full-length human 14-3-3β protein with a N-terminal His6 tag (human, UniProt P31946 1-246)
- T1 construct: 14-3-3 protein beta/alpha, human, full length; Treated as a dimer in the thermodynamic model (Pp = 14-3-3 dimer); also called Pp (14-3-3 dimer); source: E. coli BL21(DE3), pPROEX HTb, purified (Ni-NTA, dialysis)
- T1 sequence (looked up): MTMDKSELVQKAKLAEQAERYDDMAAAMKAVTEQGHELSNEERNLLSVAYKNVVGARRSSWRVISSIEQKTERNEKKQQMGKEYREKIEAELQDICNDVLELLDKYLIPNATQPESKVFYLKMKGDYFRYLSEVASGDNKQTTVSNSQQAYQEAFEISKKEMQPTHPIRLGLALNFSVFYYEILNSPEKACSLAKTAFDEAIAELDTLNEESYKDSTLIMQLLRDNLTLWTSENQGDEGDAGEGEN
- Test summary: fluorescence polarisation; selectivity assay by fluorescence anisotropy: acetylated 14-3-3 client peptides titrated (from 100 μM, 2-fold) to 10 nM FITC-labeled macrocycle F2 or F4 bound to 14-3-3β (7 μM for 2, 2 μM for 4); 10 mM HEPES pH 7.4, 150 mM NaCl, 0.1% Tween20, 0.1% BSA; room temperature
- Condition info: both partners purified
Where no end group is shown, it is not given here. [ ]: non-standard residue; d: D form. pT = C[C@@H](OP(=O)(O)O)[C@H](N)C(=O)O; pS = N[C@@H](COP(=O)(O)O)C(=O)O
Measure: binding result

Worked examples, 7 binders total:
Binder: Ac-QGLLDALDLAS-NH2 (ExoS (exoenzyme S), 14-3-3 client peptide; source: synthetic peptide, bought: GenScript Biotech Corp) [ExoS client peptide]
Measure: binding result
Experimental value: binds
//
Binder: Ac-EGFPA[pT]V-OH (SMILES CC(=O)N[C@@H](CCC(=O)O)C(=O)NCC(=O)N[C@@H](Cc1ccccc1)C(=O)N1CCC[C@H]1C(=O)N[C@@H](C)C(=O)N[C@H](C(=O)N[C@H](C(=O)O)C(C)C)[C@@H](C)OP(=O)(O)O, ERα (estrogen receptor alpha), 14-3-3 client peptide; source: synthetic peptide, bought: GenScript Biotech Corp) [ERα client peptide]
Measure: binding result
Experimental value: binds
//
Binder: Ac-RPRTQ[pS]APHRRRPP-NH2 (SMILES CC(=O)N[C@@H](CCCNC(=N)N)C(=O)N1CCC[C@H]1C(=O)N[C@@H](CCCNC(=N)N)C(=O)N[C@H](C(=O)N[C@@H](CCC(N)=O)C(=O)N[C@@H](COP(=O)(O)O)C(=O)N[C@@H](C)C(=O)N1CCC[C@H]1C(=O)N[C@@H](Cc1c[nH]cn1)C(=O)N[C@@H](CCCNC(=N)N)C(=O)N[C@@H](CCCNC(=N)N)C(=O)N[C@@H](CCCNC(=N)N)C(=O)N1CCC[C@H]1C(=O)N1CCC[C@H]1C(N)=O)[C@@H](C)O, NOTCH4, 14-3-3 client peptide; source: synthetic peptide, bought: GenScript Biotech Corp) [NOTCH4 client peptide]
Measure: binding result
Experimental value: binds
//
Binder: Ac-HVRSH[pS]SPASLQLG (TAZ, 14-3-3 client peptide; No C-terminal group is printed for this peptide; source: synthetic peptide, bought: GenScript Biotech Corp) [TAZ client peptide]
Measure: binding result
Experimental value: binds
//
Binder: Ac-KLKRSY[pS]SPDITQ-NH2 (SMILES CC[C@H](C)[C@H](NC(=O)[C@H](CC(=O)O)NC(=O)[C@@H]1CCCN1C(=O)[C@H](CO)NC(=O)[C@H](COP(=O)(O)O)NC(=O)[C@H](Cc1ccc(O)cc1)NC(=O)[C@H](CO)NC(=O)[C@H](CCCNC(=N)N)NC(=O)[C@H](CCCCN)NC(=O)[C@H](CC(C)C)NC(=O)[C@H](CCCCN)NC(C)=O)C(=O)N[C@H](C(=O)N[C@@H](CCC(N)=O)C(N)=O)[C@@H](C)O, USP8, 14-3-3 client peptide; source: synthetic peptide, bought: GenScript Biotech Corp) [USP8 client peptide]
Measure: binding result
Experimental value: binds
//
Binder: Ac-RDRSS[pS]APNVH-NH2 (SMILES CC(=O)N[C@@H](CCCNC(=N)N)C(=O)N[C@@H](CC(=O)O)C(=O)N[C@@H](CCCNC(=N)N)C(=O)N[C@@H](CO)C(=O)N[C@@H](CO)C(=O)N[C@@H](COP(=O)(O)O)C(=O)N[C@@H](C)C(=O)N1CCC[C@H]1C(=O)N[C@@H](CC(N)=O)C(=O)N[C@H](C(=O)N[C@@H](Cc1c[nH]cn1)C(N)=O)C(C)C, B-RAF, 14-3-3 client peptide; source: synthetic peptide, bought: GenScript Biotech Corp) [B-RAF client peptide]
Measure: binding result
Experimental value: binds
//
Binder: Ac-RDKIRLNNAIWRAWYIQYVKRRKSPV-NH2 (also called S (in the model); source: synthetic peptide, bought: GenScript Biotech Corp) [acetylated ChREBP peptide]
Measure: binding result
Experimental value: binds

With those in mind, consider the next binder.
Query: Which binding result reading was recorded for the binder Ac-KRRRK[pS]CQA-NH2 (SMILES CC(=O)N[C@@H](CCCCN)C(=O)N[C@@H](CCCNC(=N)N)C(=O)N[C@@H](CCCNC(=N)N)C(=O)N[C@@H](CCCNC(=N)N)C(=O)N[C@@H](CCCCN)C(=O)N[C@@H](COP(=O)(O)O)C(=O)N[C@@H](CS)C(=O)N[C@@H](CCC(N)=O)C(=O)N[C@@H](C)C(N)=O, ERRγ (estrogen-related receptor gamma), 14-3-3 client peptide; source: synthetic peptide, bought: GenScript Biotech Corp) [ERRγ client peptide] ?
Result: binds
